molecular target: Serine/threonine-protein kinase PAK 4 (Homo sapiens)
Sequence (O96013 whole entry): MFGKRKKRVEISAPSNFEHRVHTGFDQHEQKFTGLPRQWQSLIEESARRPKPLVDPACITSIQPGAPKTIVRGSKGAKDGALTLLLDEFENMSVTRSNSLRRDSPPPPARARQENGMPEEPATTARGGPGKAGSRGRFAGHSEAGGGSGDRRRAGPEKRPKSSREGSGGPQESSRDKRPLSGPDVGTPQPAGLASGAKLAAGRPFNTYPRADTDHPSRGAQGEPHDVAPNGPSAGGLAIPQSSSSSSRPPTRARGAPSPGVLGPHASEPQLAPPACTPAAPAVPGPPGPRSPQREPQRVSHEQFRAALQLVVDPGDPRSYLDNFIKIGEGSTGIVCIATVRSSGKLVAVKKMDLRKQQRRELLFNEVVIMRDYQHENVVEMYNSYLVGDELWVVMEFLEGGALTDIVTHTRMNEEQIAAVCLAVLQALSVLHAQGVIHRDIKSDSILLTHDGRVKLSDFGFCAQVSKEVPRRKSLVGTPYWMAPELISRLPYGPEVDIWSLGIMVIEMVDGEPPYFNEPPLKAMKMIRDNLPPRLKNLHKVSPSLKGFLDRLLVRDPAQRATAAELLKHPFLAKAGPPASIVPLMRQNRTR
reported.property: pIC50
Give bare numbers, as −log10 of the molar value.

q: API: value(readout=pIC50, system=Serine/threonine-protein kinase PAK 4 (Homo sapiens)) for record CCn1c(=O)c(-c2ccc(Cl)cc2Cl)cc2cnc(Nc3ccc(N4CCN(C)CC4)cc3)nc21
a: 6.25

----------
target: Serine/threonine-protein kinase PAK 1 (Mus musculus, UniProt O88643)
Sequence (O88643 whole entry): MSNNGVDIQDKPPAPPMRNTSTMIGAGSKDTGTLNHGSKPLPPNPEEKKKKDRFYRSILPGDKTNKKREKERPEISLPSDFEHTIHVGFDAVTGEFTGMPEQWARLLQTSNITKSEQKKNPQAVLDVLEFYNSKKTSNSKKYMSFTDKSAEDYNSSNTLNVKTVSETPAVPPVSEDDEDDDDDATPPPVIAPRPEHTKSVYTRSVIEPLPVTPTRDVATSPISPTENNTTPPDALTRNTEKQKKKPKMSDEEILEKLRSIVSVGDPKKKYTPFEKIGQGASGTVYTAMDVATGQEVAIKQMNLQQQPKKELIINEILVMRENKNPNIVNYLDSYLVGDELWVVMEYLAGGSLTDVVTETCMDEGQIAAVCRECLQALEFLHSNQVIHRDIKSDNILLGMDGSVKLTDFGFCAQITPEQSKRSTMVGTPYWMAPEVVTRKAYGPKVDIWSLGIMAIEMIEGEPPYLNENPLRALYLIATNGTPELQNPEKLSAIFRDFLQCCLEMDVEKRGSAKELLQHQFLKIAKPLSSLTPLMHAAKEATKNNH
reported.property: pIC50
One number for each entry, as −log10 of the molar value.

q: pIC50 for CCn1c(=O)c(-c2ccc(-c3cncs3)cc2Cl)cc2cnc(Nc3ccc(N4CCN(C)CC4)cc3)nc21.Cl ?
a: 7.15
